# TARGET_SYSTEM: human muscarinic M1 receptor (Homo sapiens, UniProt P11229)
# EXPERIMENT: Alphascreen Surefire phospho-ERK1/2 functional assay, M1
# Assay type: cell-based
# CONDITIONS_USED: CHO, read-out: % Emax cf. ACh, M1, CHO cells stably expressing human M1; relative to ACh
READOUT_TYPE: Emax (%)

- CCOC(=O)N1CCC2(CC(N3CCC([C@@H]4CCCN4C(=O)OCCOC)CC3)C2)C1 (single isomer, unassigned) [2-50 Isomer 2]: 63

[a] CCOC(=O)N1CCC2(CC(N3CCC(C4CCCCN4C(=O)NC)CC3)C2)C1 (single isomer, unassigned) [4-20 Isomer 2]
[b] CCOC(=O)N1CCC2(CC(N3CCC(N4CCOCC4)CC3)C2)C1 (single isomer, unassigned) [4-11 Isomer 2]
Ask | Of a and b , whose reported Emax is numerically smaller? Selection: enter the item's label.
Reply | a

---

# TARGET_SYSTEM: human muscarinic M3 receptor (Homo sapiens, UniProt P20309)
# Sequence (P20309 whole entry): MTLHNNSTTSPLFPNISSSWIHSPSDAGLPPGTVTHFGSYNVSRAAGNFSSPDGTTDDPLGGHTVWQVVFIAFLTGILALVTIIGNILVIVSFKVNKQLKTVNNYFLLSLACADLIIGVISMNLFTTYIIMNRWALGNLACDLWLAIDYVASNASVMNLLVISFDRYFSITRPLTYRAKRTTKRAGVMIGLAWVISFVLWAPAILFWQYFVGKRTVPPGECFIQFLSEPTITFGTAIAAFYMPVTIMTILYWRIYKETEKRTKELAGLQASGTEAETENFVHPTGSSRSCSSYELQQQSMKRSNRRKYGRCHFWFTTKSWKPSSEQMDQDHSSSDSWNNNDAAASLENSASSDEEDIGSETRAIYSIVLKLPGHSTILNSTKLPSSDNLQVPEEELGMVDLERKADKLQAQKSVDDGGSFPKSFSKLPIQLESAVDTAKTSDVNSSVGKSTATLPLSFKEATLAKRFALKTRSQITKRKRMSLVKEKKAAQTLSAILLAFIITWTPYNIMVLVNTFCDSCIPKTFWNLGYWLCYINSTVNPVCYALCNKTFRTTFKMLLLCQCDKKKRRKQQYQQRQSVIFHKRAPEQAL
# EXPERIMENT: Alphascreen Surefire phospho-ERK1/2 functional assay, M3
# CONDITIONS_USED: CHO, read-out: % Emax cf. ACh, M3, CHO cells stably expressing human M3; relative to ACh
READOUT_TYPE: Emax (%)

Use the examples below as a reference point.
• CCOC(=O)N1CCC2(CC(N3CCC(c4ncc(Cl)n4C)CC3)C2)C1 (single isomer, unassigned) [1-14 Isomer 2] = 5
• CCOC(=O)N1CCC2(CC(N3CCC([C@@H]4CCCN4C(=O)NCC(F)F)CC3)C2)C1 (single isomer, unassigned) [2-45 Isomer 2] = 5
• CCOC(=O)N1CCC2(CC(N3CCC(c4nccs4)CC3)C2)C1 (single isomer, unassigned) [1-25 Isomer 2] = 13
• CCOC(=O)N1CCC2(CC(N3CCC([C@@H]4CCCN4C(=O)NC4CC(F)(F)C4)CC3)C2)C1 (single isomer, unassigned) [2-38 Isomer 2] = 2
• CCOC(=O)N1CCC2(CC(N3CCC(N4CCC[C@]4(C)C(=O)OC)CC3)C2)C1 (single isomer, unassigned) [2-95 Isomer 2] = 9
• CCOC(=O)N1CCC2(CC(N3CCC([C@@H]4CCCN4C(=O)OC4CCC4)CC3)C2)C1 (single isomer, unassigned) [2-43 Isomer 2] = 5

[I] COC(=O)N1CCC2(CC(N3CCC([C@@H]4CCCN4C(=O)NCC(F)(F)F)CC3)C2)C1 (single isomer, unassigned) [2-40 Isomer 2]
[II] CCOC(=O)N1CCC2(CC(N3CCC(N4CCCCCC4C(=O)OC)CC3)C2)C1 (single isomer, unassigned) [5-2 Isomer 2]
[III] CCOC(=O)N1CCC2(CC(N3CCC(N4CCCC(F)(F)C4)CC3)C2)C1 (single isomer, unassigned) [4-13 Isomer 2]
[IV] CCOC(=O)N1CCC2(CC(N3CCC(C4CCCN4C(=O)N(C)C)CC3)C2)C1 (single isomer, unassigned) [2-20 Isomer 2]
[V] CNC(=O)N1CCC[C@H]1C1CCN(C2CC3(CCN(C(=O)OC)C3)C2)CC1 (single isomer, unassigned) [2-15 Isomer 2]
Ask | Kindly order the items shown according to Emax, from the highest value down. List each label, following the requested order.
Reply | III, V, IV, II, I
(III: 13%, V: 9%, IV: 6%, II: 4%, I: 1%)

---

# TARGET_SYSTEM: human muscarinic M4 receptor (Homo sapiens)
# Construct: expressed in transfected cells
# EXPERIMENT: Alphascreen Surefire phospho-ERK1/2 functional assay, M4
# Type: cell-based
# CONDITIONS_USED: CHO, read-out: % Emax cf. ACh, M4, CHO cells stably expressing human M4; relative to ACh
READOUT_TYPE: Emax (%)

• CCOC(=O)N1CCC2(CC(N3CCC([C@@H]4CCCN4C(=O)N(C)C)CC3)C2)C1 (single isomer, unassigned) [2-21 Isomer 2] = 113
• CCOC(=O)N1CCC2(CC(N3CCC(N4C[C@@H](F)C[C@@H]4CO)CC3)C2)C1 (single isomer, unassigned) [2-137 Isomer 2] = 111
• CCOC(=O)N1CCC2(CC(N3CCC(N4C[C@@H](F)C[C@@H]4C(=O)OC)CC3)C2)C1 (single isomer, unassigned) [2-135 Isomer 2] = 90

[I] CCOC(=O)N1CCC2(CC(N3CCC(n4cncn4)CC3)C2)C1 (single isomer, unassigned) [1-36 Isomer 2]
[II] CCOC(=O)N1CCC2(CC(N3CCC(c4nn(C)cc4C)CC3)C2)C1 (single isomer, unassigned) [1-56 Isomer 2]
Ask | Of I and II , whose reported Emax is numerically smaller? Selection: enter the item's label.
Reply | I
(I: 47%, II: 89%)

[I] CCOC(=O)N1CCC2(CC(N3CCC(N4CC(F)(F)C[C@@H]4C(=O)NOC)CC3)C2)C1 (single isomer, unassigned) [2-91 Isomer 2]
[II] CCOC(=O)N1CCC2(CC(N3CCC(N4C(=O)CC[C@H]4C)CC3)C2)C1 (single isomer, unassigned) [2-113 Isomer 2]
Ask | I'd appreciate it if you could identify which of I and II has the greater Emax. Selection: enter the item's label.
Reply | II

[P] CCOC(=O)N1CCC2(CC(N3CCC(c4ncns4)CC3)C2)C1 (single isomer, unassigned) [1-30 Isomer 2]
[Q] CCOC(=O)N1CCC2(CC(N3CCC(N4CCCOC4=O)CC3)C2)C1 (single isomer, unassigned) [4-7 Isomer 2]
Ask | I'd appreciate it if you could identify which of P and Q has the greater Emax. Selection: enter the item's label.
Reply | P
(P: 101%, Q: 67%)

[1] CCOC(=O)N1CCC2(CC(N3CCC(c4nnnn4CC)CC3)C2)C1 (single isomer, unassigned) [1-65 Isomer 2]
[2] CCOC(=O)N1CCC2(CC(N3CCC([C@@H]4CCCN4C(=O)NC4(C)COC4)CC3)C2)C1 (single isomer, unassigned) [2-36 Isomer 2]
Ask | Of 1 and 2 , whose reported Emax is numerically smaller? Selection: enter the item's label.
Reply | 1

---

# TARGET_SYSTEM: human muscarinic M4 receptor (Homo sapiens, UniProt P08173)
# Construct: expressed in transfected cells
# Sequence (P08173 whole entry): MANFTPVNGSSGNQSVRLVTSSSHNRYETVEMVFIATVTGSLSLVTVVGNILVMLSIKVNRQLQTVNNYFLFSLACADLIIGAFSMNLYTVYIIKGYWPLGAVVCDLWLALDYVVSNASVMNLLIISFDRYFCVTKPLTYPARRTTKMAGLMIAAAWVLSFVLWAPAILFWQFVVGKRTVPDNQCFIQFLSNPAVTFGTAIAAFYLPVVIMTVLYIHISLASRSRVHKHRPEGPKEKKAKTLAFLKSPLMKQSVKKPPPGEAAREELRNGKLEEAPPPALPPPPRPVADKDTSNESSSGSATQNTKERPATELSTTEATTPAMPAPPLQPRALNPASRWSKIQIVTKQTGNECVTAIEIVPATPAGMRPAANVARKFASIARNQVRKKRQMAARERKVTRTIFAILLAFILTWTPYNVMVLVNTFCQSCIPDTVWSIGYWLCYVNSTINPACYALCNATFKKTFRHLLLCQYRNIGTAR
# EXPERIMENT: Alphascreen Surefire phospho-ERK1/2 functional assay, M4
# Assay type: cell-based
# CONDITIONS_USED: CHO cells stably expressing human M4; phospho-ERK1/2; * = variable results; read-out: pEC50 M4 (converted)
READOUT_TYPE: EC50 (nM)

Use the examples below as a reference point.
* CCOC(=O)N1CCC2(CC(N3CCC(N4C(=O)OC[C@H]4C)CC3)C2)C1 (single isomer, unassigned) [2-118 Isomer 2] | 126
* CCOC(=O)N1CCC2(CC(N3CCC([C@@H]4CCCN4C(=O)NCCF)CC3)C2)C1 (single isomer, unassigned) [2-44 Isomer 2] | 5.01
* CCOC(=O)N1CCC2(CC(N3CCC([C@@H]4CCCN4C(=O)OCCNC)CC3)C2)C1 (single isomer, unassigned) [2-67 Isomer 2] | 20
* CCOC(=O)N1CCC2(CC(N3CCC(C4CCCNC4=O)CC3)C2)C1 (single isomer, unassigned) [4-1 Isomer 2] | 69.2

[1] CCOC(=O)N1CCC2(CC(N3CCC(N4CCC[C@@H]4C(F)F)CC3)C2)C1 (single isomer, unassigned) [2-103 Isomer 2]
[2] CCOC(=O)N1CCC2(CC(N3CCC(c4nnn(CC)n4)CC3)C2)C1 (single isomer, unassigned) [1-66 Isomer 2]
Ask | Of 1 and 2 , whose reported EC50 is numerically smaller? Selection: enter the item's label.
Reply | 1
(1: 20 nM, 2: 251 nM)

---

# TARGET_SYSTEM: UniProt P11229
# Sequence (P11229 1-460): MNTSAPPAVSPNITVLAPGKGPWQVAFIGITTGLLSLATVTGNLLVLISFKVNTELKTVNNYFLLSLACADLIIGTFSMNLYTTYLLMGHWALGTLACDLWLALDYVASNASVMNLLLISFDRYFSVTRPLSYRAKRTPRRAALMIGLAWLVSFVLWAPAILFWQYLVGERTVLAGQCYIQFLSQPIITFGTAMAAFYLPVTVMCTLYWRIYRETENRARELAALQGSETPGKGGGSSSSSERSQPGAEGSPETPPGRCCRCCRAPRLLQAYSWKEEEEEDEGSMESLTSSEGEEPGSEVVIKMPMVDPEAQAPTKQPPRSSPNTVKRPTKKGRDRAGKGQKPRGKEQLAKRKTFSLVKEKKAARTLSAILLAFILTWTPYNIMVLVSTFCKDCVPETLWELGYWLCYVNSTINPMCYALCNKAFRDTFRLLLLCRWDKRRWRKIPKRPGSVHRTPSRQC
# EXPERIMENT: Alphascreen Surefire phospho-ERK1/2 functional assay, M1
# Assay type: cell-based
# CONDITIONS_USED: CHO, read-out: % Emax cf. ACh, M1, CHO cells stably expressing human M1; relative to ACh
READOUT_TYPE: Emax (%)

Use the examples below as a reference point.
* CCOC(=O)N1CCC2(CC(N3CCC([C@@H]4CCCN4C(=O)C4CC4)CC3)C2)C1 (single isomer, unassigned) [2-8 Isomer 2] | 36
* CCOC(=O)N1CCC2(CC(N3CCC(c4cc(C)c[nH]c4=O)CC3)C2)C1 (single isomer, unassigned) [3-15 Isomer 2] | 60
* CCOC(=O)N1CCC2(CC(N3CCC(N4CCNC4=O)CC3)C2)C1 (single isomer, unassigned) [2-124 Isomer 2] | 45

[a] CCOC(=O)N1CCC2(CC(N3CCC([C@@H]4CCCN4C(=S)NC)CC3)C2)C1 (single isomer, unassigned) [2-75 Isomer 2]
[b] CCOC(=O)N1CCC2(CC(N3CCC([C@@H]4CCCN4C(=O)OCCN(C)C)CC3)C2)C1 (single isomer, unassigned) [2-51 Isomer 2]
Ask | I'd appreciate it if you could identify which of a and b has the greater Emax. Selection: enter the item's label.
Reply | b
